Hello, the source for this data is patent US20240158368A1, in case you need it.

Test system: SARS-CoV-2 (strain USA-WA1/2020)
Experiment: microbe, parasite or virus in culture
Format: cell-based
Settings: Severe acute respiratory syndrome coronavirus 2; HeLa-ACE2 cells; read-out: Antiviral CoV-2 EC50
Here, each record is paired with measured EC50 data.
Express the result in nM but write the number alone.

Please review the entries below; each comes with its answer.
{"columns": ["Item smiles", "EC50 (nM)"],
 "data": [
  ["O=C(N[C@@H]1CCN(c2c(C(=O)N3CCOCC3)cc(Br)cc2C(F)(F)F)C1)c1cc(=O)[nH]c2c(F)ccc(F)c12", 9],
  ["O=C(N[C@@H]1CCN(c2c(C(=O)N3CCOCC3)cc(Br)cc2C(F)(F)F)C1)c1cc(=O)[nH]c2ccccc12", 18.1],
  ["N#Cc1cc(C(=O)N2CCOCC2)c(N2CC[C@@H](NC(=O)c3cc(=O)[nH]c4c(F)c(F)ccc34)C2)c(C(F)(F)F)c1", 19]
]}

Next molecule, EC50 to be filled in.
Param readout= EC50; system= SARS-CoV-2 (strain USA-WA1/2020); entry= `COc1cccc2[nH]c(=O)cc(C(=O)N[C@@H]3CCN(c4c(C5CC5)ccc(F)c4C(=O)N4CCOCC4)C3)c12` ; returns value.
460

====

Here, each record is paired with measured CLint scaled data.
Experiment: in vitro
Details: rat, pH 7.4
Express the result in mL/min/kg but write the number alone.

Please review the entries below; each comes with its answer.
{"columns": ["Item smiles", "CLint scaled [mL/min/kg]"],
 "data": [
  ["N#Cc1cc(C(=O)N2CCCC2)c(N2CC[C@@H](NC(=O)c3cc(=O)[nH]c4c(F)cccc34)C2)c(C(F)(F)F)c1", 142],
  ["C[C@@]12COC[C@@H]1CN(C(=O)c1cc(C#N)cc(C(F)(F)F)c1N1CC[C@@H](NC(=O)c3cc(=O)[nH]c4c(F)cccc34)C1)C2", 313],
  ["COCCN1CCN(C(=O)c2cc(C#N)cc(C(F)(F)F)c2N2CC[C@@H](NC(=O)c3cc(=O)[nH]c4c(F)cccc34)C2)CC1", 200],
  ["N#Cc1cc(C(=O)N2CCC(F)(F)C2)c(N2CC[C@@H](NC(=O)c3cc(=O)[nH]c4c(F)cccc34)C2)c(C(F)(F)F)c1", 128],
  ["N#Cc1cc(C(=O)N2C[C@H]3COC[C@H]3C2)c(N2CC[C@@H](NC(=O)c3cc(=O)[nH]c4c(F)cccc34)C2)c(C(F)(F)F)c1", 95]
]}

Need CLint scaled, item `N#Cc1cc(C(=O)N2CCCCC2)c(N2CC[C@@H](NC(=O)c3cc(=O)[nH]c4c(F)cccc34)C2)c(C(F)(F)F)c1`
220

====

Biological target: SARS-CoV-2 Mpro (Severe acute respiratory syndrome coronavirus 2 (2019-nCoV) (SARS-CoV-2), UniProt P0DTD1)
Here, each record is paired with measured pEC50 data.
In plain terms, pEC50 is the concentration in mol/L turned into minus its base-10 logarithm.

Please review the entries below; each comes with its answer.
{"columns": ["Item smiles", "pEC50"],
 "data": [
  ["O=C(N[C@@H]1CCN(c2c(C(=O)N3CCOCC3)cc(Br)cc2C(F)(F)F)C1)c1cc(=O)[nH]c2c(F)ccc(F)c12", 9.37],
  ["O=C(N[C@@H]1CCN(c2c(C(=O)N3CCOCC3)cc(Br)cc2C(F)(F)F)C1)c1c(F)c(=O)[nH]c2ccccc12", 9.22]
]}

Next molecule, pEC50 to be filled in.
Need pEC50, item `O=C(N[C@@H]1CCN(c2c(C(=O)N3CCOCC3)cc(F)cc2C(F)(F)F)C1)c1cc(=O)[nH]c2c(F)cc(F)cc12`
8.74

====

Assay: in vitro
Conditions: rat, microsomes, pH 7.4
Result type: CLint scaled

Need CLint scaled, item O=C(N[C@@H]1CCN(c2c(C(=O)N3CCOCC3)cc(Br)cc2C(F)F)C1)c1c(F)c(=O)[nH]c2c(F)cccc12 [Compound 54]
257 mL/min/kg

====

Assay: in vitro
Details: human, microsomes, pH 7.4
Result type: CLint scaled

Please review the entries below; each comes with its answer.
{"columns": ["Item smiles", "Val"],
 "data": [
  ["Cc1cc(C(=O)N2CCOCC2)c(N2C[C@H](NC(=O)c3cc(=O)[nH]c4c(F)c(F)ccc34)CC2=O)c(C2CC2)c1", "< 33.3 mL/min/kg"],
  ["N#Cc1cc(C(=O)N2CCNC(=O)C2)c(N2CC[C@@H](NC(=O)c3cc(=O)[nH]c4c(F)cccc34)C2)c(C(F)(F)F)c1", "< 35 mL/min/kg"],
  ["Cc1cc(C(=O)N[C@@H]2CCN(c3c(C(=O)N4CCOCC4)cc(C#N)cc3C(F)(F)F)C2)c(F)c(=O)[nH]1", "< 30 mL/min/kg"]
]}

Need CLint scaled, item `Cc1cc(C(=O)N2CCOCC2)c(N2C[C@H](NC(=O)c3cc(=O)[nH]c4c(F)cc(F)cc34)CC2=O)c(C2CC2)c1`
< 33.3 mL/min/kg

Need CLint scaled, item `Cc1cc(C(=O)N[C@@H]2CCN(c3c(C(=O)NCC(C)C)cc(C#N)cc3C(F)(F)F)C2)cc(=O)[nH]1`
< 30 mL/min/kg

Need CLint scaled, item `N#Cc1cc(C(=O)N2CCOCC2)c(N2CC[C@@H](NC(=O)c3cc(=O)[nH]c4c(F)cc(F)cc34)C2)c(C(F)(F)F)c1`
< 35 mL/min/kg

Need CLint scaled, item `N#Cc1cc(C(=O)N2CCOCC2)c(N2CC[C@@H](NC(=O)c3c(F)c(=O)[nH]c4c(F)cccc34)C2)c(C(F)F)c1`
< 25 mL/min/kg

Need CLint scaled, item `N#Cc1cc(C(=O)N2CCOCC2)c(N2CC[C@@H](NC(=O)c3cc(=O)[nH]c4c(F)cccc34)C2)c(C2CC2)c1`
< 28.3 mL/min/kg

Need CLint scaled, item `Cc1cc(C(=O)N[C@@H]2CCN(c3c(C(=O)N4CCOCC4)cc(Br)cc3C(F)(F)F)C2)c(F)c(=O)[nH]1`
< 36.7 mL/min/kg

====

Test system: SARS-CoV-2 (strain USA-WA1/2020)
Test: microbe, parasite or virus in culture
Type: cell-based
Conditions: Severe acute respiratory syndrome coronavirus 2; HeLa-ACE2 cells; read-out: Antiviral CoV-2 EC50
Here, each record is paired with measured EC50 data.
Express the result in nM but write the number alone.

Please review the entries below; each comes with its answer.
{"columns": ["Item smiles", "System", "Result type", "Val"],
 "data": [
  ["O=C(N[C@@H]1CCN(c2c(C(=O)N3CCOCC3)cc(Br)cc2C(F)(F)F)C1)c1cc(=O)[nH]c2c(F)cc(F)cc12", "SARS-CoV-2 (strain USA-WA1/2020)", "EC50", 11.3],
  ["O=C(N[C@@H]1CCN(c2c(OC(F)F)cc(Cl)cc2C(=O)N2CCOCC2)C1)c1cc(=O)[nH]c2c(F)cccc12", "SARS-CoV-2 (strain USA-WA1/2020)", "EC50", 24.7],
  ["N#Cc1cc(C(=O)N2CCOCC2)c(N2CC[C@@H](NC(=O)c3cc(=O)[nH]c4c(F)cc(F)cc34)C2)c(C(F)(F)F)c1", "SARS-CoV-2 (strain USA-WA1/2020)", "EC50", 25.6]
]}

Need EC50, item `Cc1cc(C(=O)N[C@@H]2CCN(c3c(C(=O)N4CCOCC4)cc(C#N)cc3C(F)(F)F)C2)c(F)c(=O)[nH]1`
589

Need EC50, item `N#Cc1cc(C(=O)N2CCOCC2)c(N2CC[C@@H](NC(=O)c3cc(=O)[nH]c4c(F)cccc34)C2)c(C2CC2)c1`
5

Need EC50, item `N#Cc1cc(C(=O)N2C[C@H]3COC[C@H]3C2)c(N2CC[C@@H](NC(=O)c3cc(=O)[nH]c4c(F)cccc34)C2)c(C(F)(F)F)c1`
13.6

Need EC50, item `O=C(N[C@@H]1CCN(c2c(C(=O)N3CCOCC3)cc(Br)cc2C(F)F)C1)c1c(F)c(=O)[nH]c2c(F)cccc12`
5

Need EC50, item `O=C(N[C@@H]1CCN(c2c(C(=O)N3CC4(COC4)C3)cc(Br)cc2C(F)(F)F)C1)c1cc(=O)[nH]c2c(F)cccc12`
12.3

====

Experiment: in vitro
Conditions: rat, microsomes, pH 7.4
Result type: CLint scaled

Please review the entries below; each comes with its answer.
{"columns": ["Compound", "Val"],
 "data": [
  ["Cc1cc(C(=O)N[C@@H]2CCN(c3c(C(=O)N4CCOCC4)cc(C#N)cc3C(F)(F)F)C2)c(F)c(=O)[nH]1 [Compound 10]", "< 50 mL/min/kg"],
  ["O=C(N[C@@H]1CC(=O)N(c2c(C(=O)N3CCOCC3)cc(Br)cc2C(F)(F)F)C1)c1c(F)c(=O)[nH]c2c(F)c(F)ccc12 [Compound 77]", "< 65 mL/min/kg"],
  ["CO[C@H]1CN(c2c(C(=O)N3CCOCC3)cc(C#N)cc2C(F)(F)F)C[C@@H]1NC(=O)c1cc(=O)[nH]c2c(F)cccc12 [Compound 32]", "< 70 mL/min/kg"],
  ["Cc1[nH]c(=O)cc(C(=O)N[C@@H]2CCN(c3c(C(=O)N4CCOCC4)cc(Br)cc3C(F)(F)F)C2)c1F [Compound 59]", "< 68.3 mL/min/kg"],
  ["N#Cc1cc(C(=O)N2CCOCC2)c(N2CC[C@@H](NC(=O)c3c(F)c(=O)[nH]c4c(F)cccc34)C2)c(C(F)(F)F)c1 [Compound 5]", "< 60 mL/min/kg"]
]}

Need CLint scaled, item Cc1cc(C(=O)N[C@@H]2CCN(c3c(C(=O)N4CCOCC4)cc(Br)cc3C(F)(F)F)C2)c(F)c(=O)[nH]1 [Compound 3]
< 60 mL/min/kg
